# System: HCT-15 colon
# Assay explanation: NCI-60 one-dose screen, 48 h
# Condition parameters: 10 µM unless noted
About 83,000 compounds went through this panel and 20% of them were active in at least one assay; those are over-represented in the sample as a whole. The source made the active and inactive calls. How the source made its calls: active means growth percent below 10; inactive means the rest.
Select the matching outcome among label 1 for active, label 0 for inactive

In this assay, the call recorded for CCN(CCO)CC(C)Nc1ccc([N+](=O)[O-])c2sc3ccccc3c(=O)c12 (configuration not stated) was what?
label 0

In this assay, the call recorded for `CCOC(=O)c1c(C)c2c(n1C)CSc1cc(S(=O)(=O)c3ccccc3)c(=O)[nH]c1-2` was what?
label 0

In this assay, the call recorded for `C#CCOc1cccc(-c2ncc3cc(NC(=O)CCl)ccc3n2)c1` was what?
label 1

In this assay, the call recorded for `Fc1ccc2c(c1)c(-c1nc(-c3c[nH]c4ncccc34)cs1)cn2CCCN1CCOCC1` was what?
label 0

In this assay, the call recorded for `CCCn1c(=S)sc2c1nc(C)n1c(Nc3ccccc3)nnc21` was what?
label 0

In this assay, the call recorded for `COC(=O)Cc1nc(C#N)c(N(C)C)o1` was what?
label 0

In this assay, the call recorded for `COc1cc(C(=O)c2c(N)ncn2-c2ccccc2)cc(OC)c1OC` was what?
label 0

In this assay, the call recorded for `O=C1/C=C/[C@@H](O)[C@@H]2C[C@@H](O)C[C@H]2/C=C/CCC[C@H](CCOCc2ccccc2)O1` was what?
label 1

In this assay, the call recorded for `COC(=O)c1nc(-c2ccccc2)oc1S(=O)(=O)N1CCC(C(N)=O)CC1` was what?
label 0

In this assay, the call recorded for `CCCCn1sc(=O)n(Cc2ccc(CNC(=O)OCc3ccc4c(Cl)cc(Cl)c(O)c4n3)cc2)c1=O` was what?
label 0

In this assay, the call recorded for COc1ccc(C(O)c2cc3c(N)c(C(=O)Nc4cccc(Cl)c4)sc3nc2C)cc1 (configuration not stated) was what?
label 0

In this assay, the call recorded for O=C1CCC(C(=O)NN(c2ccccc2)c2ccccc2)N1 (configuration not stated) was what?
label 0

* * *

# Tested on: CCRF-CEM leukemia
# Assay explanation: NCI-60 one-dose screen, 48 h
# Condition parameters: 10 µM unless noted
The panel holds about 83,000 compounds, 20% with a hit somewhere; the sample as a whole holds those more often. Activity calls are given as the source filed them. How the source made its calls: active means growth percent below 10; inactive means the rest.
Select the matching outcome among active, inactive

In this assay, the call recorded for CC1=CCC[C@@H]2C1(C)CC[C@H](C)[C@@]2(C)CC1=CC(=O)C(SC(C)(C)C)=CC1=O (stereo not given in full) was what?
active

In this assay, the call recorded for `Cc1cc(F)ccc1S(=O)(=O)Nc1cc(-c2c(O)ccc3ccccc23)c(O)c2ccccc12` was what?
inactive

In this assay, the call recorded for `CC(C)(C)c1cc(C=Nc2cccc(C(F)(F)F)c2)c(O)c(C(C)(C)C)c1` was what?
inactive

In this assay, the call recorded for `CCCNc1nc2ccccc2c2c(=O)c3cccc(Cl)c3sc12` was what?
inactive

In this assay, the call recorded for `O=C1NC(=O)c2c1c1c3ccccc3[nH]c1c1oc3ccc(F)cc3c21` was what?
inactive

In this assay, the call recorded for COc1ccc(C2=Nc3c(N)ncnc3NC(c3cccc(Nc4ccnc5cc(C(F)(F)F)ccc45)c3)C2)cc1 (stereo not given) was what?
inactive

In this assay, the call recorded for `COc1ccc2[nH]cc(-c3nc(-c4cn(C)c5ccncc45)cs3)c2c1` was what?
active

In this assay, the call recorded for `O=c1oc2c(cnc3ccccc32)cc1-c1cccs1` was what?
inactive

In this assay, the call recorded for `C#CC#CC#CC#CC#CC#CC#CC#CC[C@H]1OC[C@H](COC(=O)O[C@@H](C(=O)O[C@H]2C[C@@]3(O)[C@@H](OC(=O)c4ccccc4)[C@@H]4[C@]5(OC(C)=O)CO[C@@H]5C[C@H](O)[C@@]4(C)C(=O)[C@H](OC(C)=O)C(=C2C)C3(C)C)[C@@H](NC(=O)c2ccccc2)c2ccccc2)O1` was what?
inactive

In this assay, the call recorded for `C[C@@H](CO)[C@@H]1CC[C@]2(C(=O)N3CCN(C)CC3)CC[C@]3(C)[C@H](CC[C@@H]4[C@@]5(C)CC[C@H](O)C(C)(C)[C@@H]5CC[C@]43C)[C@@H]12` was what?
active

In this assay, the call recorded for `C=C1C(=O)O[C@H]2[C@H]1CC/C(CNC(=O)c1cc3ccccc3[nH]1)=C\CC[C@@]1(C)O[C@@H]21` was what?
active

In this assay, the call recorded for `C(/C=C/c1ccccc1)=Nc1ccc(CCc2ccc(N=C/C=C/c3ccccc3)cc2)cc1` was what?
inactive

In this assay, the call recorded for `CCCCCCCCn1ccc2cc(NC(=O)Cn3cc(CN4CCC(C)CC4)nn3)ccc21` was what?
active

In this assay, the call recorded for `COc1ccc(C2=Nc3c/c(=C\c4c(O)[nH]c5cc(Cl)ccc45)ccc3=N2)cc1` was what?
inactive

In this assay, the call recorded for `Cn1cccc1/C=C1\C(=O)Nc2ccccc21` was what?
inactive

In this assay, the call recorded for `CN1CCN(c2ccc3c(c2)nc(NNC(=O)c2cnccn2)c2cccn23)CC1` was what?
inactive

In this assay, the call recorded for `C[C@@H]1CC[C@@]2(OC1)O[C@H]1C[C@H]3[C@@H]4CC=C5C[C@@H](O[C@@H]6O[C@H](CO)[C@@H](O[C@@H]7O[C@@H](CO)[C@H](O)[C@H]7O)[C@H](O)[C@H]6O[C@@H]6O[C@@H](C)[C@H](O)[C@@H](O)[C@H]6O)CC[C@]5(C)[C@H]4CC[C@]3(C)[C@H]1[C@@H]2C` was what?
active

In this assay, the call recorded for COc1ccc(-c2cc(C(=O)N3N=C(c4ccc(N)cc4)CC3c3ccccc3)c3ccccc3n2)cc1 (stereo not given) was what?
inactive

In this assay, the call recorded for `O=C(Nc1ccccc1O)c1ccccc1Nc1ccnc(C(F)(F)F)c1` was what?
inactive

In this assay, the call recorded for `COc1cc2nc(Nc3cccc(F)c3)nc(Nc3cc(C)[nH]n3)c2cc1OC` was what?
active

In this assay, the call recorded for `N#C/C(=C\c1ccc(-c2ccc(Cl)cc2)o1)c1ccc(Cl)cc1` was what?
inactive

In this assay, the call recorded for `CCOc1ccc(NC(=O)c2cc(OC)c(OC)c(OC)c2)cc1` was what?
inactive

In this assay, the call recorded for `N#Cc1nc(-c2ccc(F)cc2)oc1S(=O)(=O)N1CCN(c2ccc(F)cc2)CC1` was what?
active

In this assay, the call recorded for `Oc1c(I)cc(-c2nc3ccccc3s2)cc1CN(Cc1ccccn1)Cc1ccccn1` was what?
active

In this assay, the call recorded for `CS(=O)(=O)Nc1cc(-c2ccc3ncnc(Nc4ccc5c(cnn5Cc5cccnc5)c4)c3c2)cnc1Cl` was what?
inactive

* * *

# Tested on: DU-145 prostate
# Assay explanation: NCI-60 one-dose screen, 48 h (100 = growth as untreated, 0 = no growth, -100 = all killed)
# Condition parameters: 10 µM unless noted
About 83,000 compounds went through this panel and 20% of them were active in at least one assay; those are over-represented in the sample as a whole.
Please go through the items and note down their growth.
Give your result in % as a bare value.

Suppose we examine the compound `O=C1NC(=O)c2c1c1c3ccccc3[nH]c1c1oc3ccc(F)cc3c21` ; what growth value has been reported?
77.4

Suppose we examine the compound `C=NNc1ccccc1` ; what growth value has been reported?
100

Suppose we examine the compound `CCCCCCCCn1ccc2cc(NC(=O)Cn3cc(CN4CCC(C)CC4)nn3)ccc21` ; what growth value has been reported?
42.3

Suppose we examine the compound `O=c1oc2c(cnc3ccccc32)cc1-c1cccs1` ; what growth value has been reported?
113

Suppose we examine the compound `COc1ccc(OC)c(-c2cn3nc(-c4c[nH]c5ccc(Br)cc45)sc3n2)c1` ; what growth value has been reported?
29.3

Suppose we examine the compound `Cc1[nH]c(C(=O)Nc2cccc(OC3CCNCC3)c2)c(Cl)c1Cl` ; what growth value has been reported?
88

Suppose we examine the compound `O=C(Cn1nnc2ccccc21)N/N=C/c1ccccc1F` ; what growth value has been reported?
107

* * *

# Tested on: LOX IMVI melanoma
# Assay explanation: NCI-60 one-dose screen, 48 h (100 = growth as untreated, 0 = no growth, -100 = all killed)
# Condition parameters: 10 µM unless noted
This is part of a sample that, as a whole, favours compounds with a hit. Of some 83,000 tested, about 20% had one in any assay.
Please go through the items and note down their growth.
Give your result in % as a bare value.

Suppose we examine the molecule `C(/C=C/c1ccccc1)=Nc1ccc(CCc2ccc(N=C/C=C/c3ccccc3)cc2)cc1` ; what growth value has been reported?
73.1

Suppose we examine the molecule `Oc1c(Cl)cc(Cl)c2ccc(Cn3cc(-c4cccc(C(F)(F)F)c4)nn3)nc12` ; what growth value has been reported?
23.7

Suppose we examine the molecule `Fc1ccc2c(c1)c(-c1nc(-c3c[nH]c4ncccc34)cs1)cn2CCCN1CCOCC1` ; what growth value has been reported?
33.1

Suppose we examine the molecule Cc1c(N2CN3C[C@H](C)N4CN(c5c(C)n(C)n(-c6ccccc6)c5=O)CN5C[C@@H](C)N(C2)C3C54)c(=O)n(-c2ccccc2)n1C (stereo not given in full) ; what growth value has been reported?
96

Suppose we examine the molecule `CCCCCCCC/C=C\CCCCCCCCOc1ccc(CC(=O)NCC[N+](C)(C)C)cc1` ; what growth value has been reported?
83.2

Suppose we examine the molecule `C=C1C(=O)O[C@H]2[C@H]1CC/C(COC(=O)NCCCCCCCCNC(=O)OC/C1=C/CC[C@@]3(C)O[C@H]3[C@H]3OC(=O)C(=C)[C@@H]3CC1)=C\CC[C@@]1(C)O[C@@H]21` ; what growth value has been reported?
-78.2

Suppose we examine the molecule `CCC(CC)(N(CC(=O)O)CC(=O)O)C(CC)(CC)N(CC(=O)O)CC(=O)O` ; what growth value has been reported?
98.6

Suppose we examine the molecule `NS(=O)(=O)c1ccc(N/C=C/C(=O)c2cc3ccccc3oc2=O)cc1` ; what growth value has been reported?
93

Suppose we examine the molecule COc1ccc(C2CC(c3ccc(Nc4nc(Nc5ccc(F)cc5)nc(Nc5ccc(F)cc5)n4)cc3)=NN2C(C)=O)cc1 (stereo not given) ; what growth value has been reported?
103

Suppose we examine the molecule CC(O)c1ncc(/C=C2\SC(=S)N(Cc3ccccc3)C2=O)s1 (stereo not given) ; what growth value has been reported?
92.7

Suppose we examine the molecule `CC(C)c1ccc(C(=O)Nc2sc3cc(O)ccc3c2C#N)cc1` ; what growth value has been reported?
25.4

Suppose we examine the molecule `Cc1ccc(N=Nc2c(N)nn(-c3ccccc3)c2N)cc1` ; what growth value has been reported?
47.1

Suppose we examine the molecule `N#Cc1c(-c2cccc([N+](=O)[O-])c2)cc(-c2ccc(Nc3nc(Nc4ccc(F)cc4)nc(Nc4ccc(F)cc4)n3)cc2)nc1N` ; what growth value has been reported?
97.9

Suppose we examine the molecule `NC(=O)OCCn1cc(-c2nc(-c3c[nH]c4ncccc34)cs2)c2ccccc21` ; what growth value has been reported?
30.1

Suppose we examine the molecule `CCOC(=O)N1CCN(S(=O)(=O)c2oc(-c3ccc(Cl)cc3)nc2C#N)CC1` ; what growth value has been reported?
10.8

Suppose we examine the molecule `Brc1ccc(-c2cnc3nonc3n2)cc1` ; what growth value has been reported?
38

Suppose we examine the molecule `CC(C)c1ccc(-n2c(=S)[nH]c3sc4c(c3c2=O)CCC(=O)C4)cc1` ; what growth value has been reported?
43.3

Suppose we examine the molecule `Cc1ccc(Nc2nc(-c3ccc(F)cc3)c(C#N)c(=O)n2C)cc1` ; what growth value has been reported?
74.3

Suppose we examine the molecule COc1cc(N2C(=O)[C@H](c3ccccc3)C2c2ccc(SC)cc2)cc(OC)c1OC (stereo not given in full) ; what growth value has been reported?
13.4

Suppose we examine the molecule `C=C1C(=O)O[C@H]2[C@H]1CC/C(Cn1cc(-c3cc(C(F)(F)F)cc(C(F)(F)F)c3)nn1)=C\CC[C@@]1(C)O[C@@H]21` ; what growth value has been reported?
-87.1

Suppose we examine the molecule `COc1ccc(/C=C/C(=O)c2ccc(NC(=O)CSc3nnc(-c4cc(-c5ccccc5)nc5ccccc45)n3-c3ccccc3)cc2)cc1` ; what growth value has been reported?
96.5

Suppose we examine the molecule COc1ccc(C2=Nc3c(N)ncnc3NC(c3cccc(Nc4ccnc5cc(C(F)(F)F)ccc45)c3)C2)cc1 (stereo not given) ; what growth value has been reported?
61.8

Suppose we examine the molecule CC12CCC(/C(=C/NNc3ccc([N+](=O)[O-])cc3[N+](=O)[O-])C1=O)C2(C)C (stereo not given) ; what growth value has been reported?
56.5

Suppose we examine the molecule `CCOc1ccc(/C=N\N=C\c2ccc(OCC)cc2)cc1` ; what growth value has been reported?
70.5

Suppose we examine the molecule `COc1cc2c(/C=C3\C(=O)Nc4ccccc43)c(C(=O)O)[nH]c2cc1C` ; what growth value has been reported?
92.7
